test: Area under the curve for the compound was obtained when tested in dog; assay type: ADME, organism-based, Canis lupus familiaris; settings: in vivo

# compound, AUC (µM·h)
data = [
    ("Cc1cc(SC2=C(O)O[C@](CCc3ccc(O)cc3)(C(C)C)CC2=O)c(C(C)(C)C)cc1N (stereo in doubt; 15S)", 138),
]

====

target: Human immunodeficiency virus type 1 protease (Human immunodeficiency virus 1, UniProt Q72874); assay: In vitro binding affinity against HIV protease at pH 6.2.
endpointName: IC50 (nM)

# compound, endpointName, observedValue
rows = [
    ("Cc1cc(SC2=C(O)OC(CCc3ccc(O)cc3)(C(C)C)CC2=O)c(C(C)(C)C)cc1NC(=O)c1ccc(C#N)cc1 (stereo not drawn)", "IC50", 5),
    ("Cc1cc(SC2=C(O)OC(C)(CCc3ccc(O)cc3)CC2=O)c(C(C)(C)C)cc1N (stereo not drawn)", "IC50", 9.6),
    ("Cc1cc(SC2=C(O)OC(CCc3ccc(O)cc3)(C(C)C)CC2=O)c(C(C)(C)C)cc1NC(=O)c1cccc(C#N)c1 (stereo not drawn)", "IC50", 15),
    ("CC(=O)Nc1cc(C(C)(C)C)c(SC2=C(O)OC(CCc3ccc(O)cc3)(C(C)C)CC2=O)cc1C (stereo not drawn)", "IC50", 3.4),
    ("Cc1cc(SC2=C(O)OC(CCc3ccccc3)(c3ccccc3)CC2=O)c(C(C)(C)C)cc1N (stereo not drawn)", "IC50", 11),
    ("CCCC1(CCc2ccc(O)cc2)CC(=O)C(Sc2cc(C)c(N)cc2C(C)(C)C)=C(O)O1 (stereo not drawn)", "IC50", 3.8),
    ("Cc1cc(SC2=C(O)OC(CCc3ccc(O)cc3)(C(C)C)CC2=O)c(C(C)(C)C)cc1NC(=O)c1ccc(C(F)(F)F)cc1 (stereo not drawn)", "IC50", 12.1),
    ("Cc1cc(SC2=C(O)OC(CCc3ccc(O)cc3)(C(C)C)CC2=O)c(C(C)(C)C)cc1NC(=O)CC(C)(C)C (stereo not drawn)", "IC50", 60),
]
